// data source = patent US20260219274A1

test_summary: Xylitol intervention study: postprandial plasma xylitol levels and elimination
Format: in vivo
experimental_conditions: both sexes, human, plasma, oral; 30 min following ingestion of 30 g xylitol; read-out: plasma levels of xylitol, median [IQR]
readout_kind: concentration at 30 min (µM)
Reply with just the number (in µM).

[ask] Which value of concentration at 30 min has been reported for OC[C@@H](O)[C@H](O)[C@@H](O)CO in the records?
[reply] 312

---

test_summary: Xylitol intervention study: postprandial plasma xylitol levels and elimination
Assay type: in vivo
experimental_conditions: both sexes, human, plasma; 30 g xylitol oral
readout_kind: half-life
Give the number first and the unit second.

[ask] Which value of half-life has been reported for OC[C@@H](O)[C@H](O)[C@@H](O)CO in the records?
[reply] 12.6 min

---

test_summary: clinical
experimental_conditions: both sexes, human, in vivo
Excerpt: This single center trial was approved by the Cleveland Clinic Institutional Review Board (clinicaltrials.gov identifier NCT04731363). […] Following erythritol consumption, postprandial circulating erythritol levels (assessed using stable-isotope-dilution liquid-chromatography tandem mass spectrometry (LC/MS/MS)3) were >1000-fold increased compared to baseline levels (median[inter quartile range], 6480[5930-7300]μM versus 3.75[3.35-3.87]μM, P<0.0001). […]
readout_kind: concentration at 30 min (µM)
Reply with just the number (in µM).

[ask] Which value of concentration at 30 min has been reported for OC[C@@H](O)[C@@H](O)CO in the records?
[reply] 6480
